# half-life annotations
Experiment: Pharmacokinetics after intravenous and oral administration in rats
Format: in vivo, rat
Details: rat, plasma, iv dosing, dose 1 mg/kg

# chemicalString, half-life [h]
records = [
    ("CC[C@H](Nc1ncnc(N)c1-c1nnc(C)o1)c1nc2cccc(F)c2c(=O)n1C1CC1", 0.81),
    ("CC[C@H](Nc1ncnc(N)c1-c1nc(C)no1)c1nc2cccc(Cl)c2c(=O)n1[C@@H]1C[C@@H]1F", 1.35),
    ("CCc1nc(-c2c(N)ncnc2N[C@@H](C)c2nc3cccc(Cl)c3c(=O)n2C2CC2)no1", 1),
    ("CC[C@H](Nc1ncnc(N)c1-c1nc(C(N)=O)n(C)n1)c1nc2cccc(Cl)c2c(=O)n1C1CC1", 2.38),
    ("Cc1nnc(-c2c(N)ncnc2N[C@@H](C)c2nc3cccc(Cl)c3c(=O)n2-c2ccccc2)o1", 0.777),
    ("CC[C@H](Nc1ncnc(N)c1-c1noc(C)n1)c1nc2cccc(Cl)c2c(=O)n1C1CC1", 1.28),
    ("CC[C@H](Nc1ncnc(N)c1-c1nnc(C)o1)c1nc2cccc(C)c2c(=O)n1-c1ccccc1", 0.655),
    ("CC[C@H](Nc1ncnc(N)c1-c1nc(COC)n(C)n1)c1nc2cccc(Cl)c2c(=O)n1C1CC1", 0.71),
    ("CC[C@H](Nc1ncnc(N)c1-c1noc(C)n1)c1nc2cccc(C)c2c(=O)n1C1CC1", 2.63),
    ("CC[C@H](Nc1ncnc(N)c1-c1ncn(C)n1)c1nc2cccc(C)c2c(=O)n1-c1ccccc1C", 0.86),
    ("CC[C@H](Nc1ncnc(N)c1-c1nc(C)no1)c1nc2ccccc2c(=O)n1-c1ccccc1F", 0.85),
    ("CC[C@H](Nc1ncnc(N)c1-c1nc(C)no1)c1nc2cccc(C)c2c(=O)n1-c1ccccc1C", 1.85),
    ("CC[C@H](Nc1ncnc(N)c1-c1noc(C)n1)c1nc2cccc(C)c2c(=O)n1-c1ccccc1C", 1.16),
    ("CC[C@H](Nc1ncnc(N)c1-c1nc(C)no1)c1nc2cccc(Cl)c2c(=O)n1C1CC1", 5.98),
    ("CC[C@H](Nc1ncnc(N)c1-c1nc(C)no1)c1nc2cccc(C)c2c(=O)n1C1CC1", 1.61),
    ("CC[C@H](Nc1ncnc(N)c1-c1ncn(C)n1)c1nc2cccc(F)c2c(=O)n1C1CC1", 2.13),
]
